# target-under-test: PDC-88 (Pseudomonas aeruginosa, UniProt P24735, DEL316-317/G27D/G391A/T105A/V205L/V356I)
# Construct: NdeI 5′-[…]-3ʹ and BamHI 5ʹ-[…]-3ʹ; His tag removed) (N)
# experiment-description: biochemical
value-type: IC50 (nM)
# number only, unit nM dropped from output

What IC50 value was documented for this compound, NCCN[C@H]1CC[C@H](CC(=O)N[C@H]2Cc3cccc(C(=O)O)c3OB2O)CC1 ?
22

Recorded values, source paper PMC12217481.
